Hey, just so you know, these numbers are from paper PMC9126595.

A collection of compounds and their measured pIC50
Tested on: Panc-1 pancreatic cancer cell line
Experiment: SRB anti-proliferative assay, Panc-1
Format: cell-based, human
Conditions: Homo sapiens, PANC-1, 48 h, read-out: IC50 Panc-1
pIC50: −log10 of the molar value.
Quantity: pIC50

> print(dat)
                                   compound  value.reported
1  O=C(NNC(=O)c1oc2ccccc2c1CN1CCN(c2ccccc2)CC1)Nc1ccccc1 [Compound 11a]            4.25
2  COc1ccc(NC(=O)NNC(=O)c2oc3ccccc3c2CN2CCN(c3ccccc3)CC2)cn1 [Compound 11e]            4.26
3  O=C(NNC(=O)c1oc2ccccc2c1CN1CCN(c2ccccc2)CC1)Nc1ccc(Cl)c(C(F)(F)F)c1 [Compound 11d]            5.65
